system.under.test: T1, SALL4 ZFC4 WT (Mus musculus, UniProt Q8BX22 870-940)
T1 sequence: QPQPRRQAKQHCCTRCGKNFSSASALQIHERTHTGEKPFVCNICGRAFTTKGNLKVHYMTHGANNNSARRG
assay.notes: EMSA; apparent; patient mutation dataset; poly(dI-dC); EMSA: 68.1 nM DY681-dsDNA, 20 mM HEPES pH 7.5, 150 mM K acetate, 5 mM Mg acetate, 10 ng/ul poly(dI-dC), 30 min on ice; 4% native PAGE, 0.5x TBE, 4 C
condition.notes: protein: recombinant; tags: His6-GST removed with 3C protease; GPDS scar at N-terminus; label: DY681
measured.parameter: Kd (nM)
Express your answer in nM, writing the number without its unit.

# binder EMSA AT-rich probe (dsDNA) DNA 1: AAAAAATATTAAAAA DNA 2: TTTTTAATATTTTTT ; its Kd = 472
